B1: CPEB3 Ribozyme (parent)
chain: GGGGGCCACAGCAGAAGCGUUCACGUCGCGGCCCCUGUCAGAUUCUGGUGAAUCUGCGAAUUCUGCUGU

Variants of: B1
ASSAY_DETAILS: self-cleavage, relative activity (ratio to wild type); higher = more cleavage; co-transcriptional
self-cleavage vs 0.2: at or above is true (1), below is false (0).

| RESIDUE_SEQUENCE | CLASS_ASSIGNMENT |
| --- | --- |
| GGGGGCCACAGCAGAAGCCGUCACGUCGCGGCCCCUGUCAGAUUCUGGUGAAUCUGCGAAUUCUGCUGU | false (0) |
| GGGGGCCACAGCAGAAGCGUCCACGUAGCGGCCCCUGUCAGAUUCUGGUGAAUCUGCGAAUUCUGCUGU | true (1) |
| GGGGGCCACAGCAGAAGCGUUCACGUCGCGACCCCUGUCAGAUUCUGGUGACUCUGCGAAUUCUGCUGU | true (1) |
| GGGGGCCACAGCAGAAGCGUUCACGUCGCGGCCCCUGUCAGAAUCUGGUGAAUCUGCUAAUUCUGCUGU | true (1) |
| GGGGGGCACAGCAGAAGCGUUCACGUCGCGGCCCCUGUCAGCUUCUGGUGAAUCUGCGAAUUCUGCUGU | true (1) |
| GGGGGUCACAGCAGAAGCGUUCCCGUCGCGGCCCCUGUCAGAUUCUGGUGAAUCUGCGAAUUCUGCUGU | true (1) |
| GGGAGCCACAGCAUAAGCGUUCACGUCGCGGCCCCUGUCAGAUUCUGGUGAAUCUGCGAAUUCUGCUGU | true (1) |
| GGCGGCCACAGCAGAAGCGUUCACGUCGCGGCCCCUGUCAGAUUCUGGUGAAUCUGCGAAUUCUUCUGU | false (0) |
| GGGGUCCACAGCAGAAGCGUUCACGUCGCGGCCCCUGUCAGAUACUGGUGAAUCUGCGAAUUCUGCUGU | false (0) |
| GGGGGCCACAGCAGAAGCGUUCACGUCGCGGCCCCUGUCAUAUUCUGGUGAAUCUGCAAAUUCUGCUGU | true (1) |
| CGGGGCCACAGCAGGAGCGUUCACGUCGCGGCCCCUGUCAGAUUCUGGUGAAUCUGCGAAUUCUGCUGU | true (1) |
| GGGGGCCACAGCAGAAGCGUCCACGUCGCGGCCCCUGUCAGAUUCUGGUGAAUCUGCGAACUCUGCUGU | true (1) |
| GGGGGCCACAGCAGAAGAGUUCACGUCGCUGCCCCUGUCAGAUUCUGGUGAAUCUGCGAAUUCUGCUGU | false (0) |
| GGGGGCCACAGCAGAAGCGAUCACGUCGCGGCCCCUGUCAGAUUCUGGUGAAUCUGCGAAUUCGGCUGU | false (0) |
| GGGGCCCACAGCAGAAGCGUUCACGUCGCGGCCCCCGUCAGAUUCUGGUGAAUCUGCGAAUUCUGCUGU | true (1) |
| GGGGGCCACAGCAGAAGCGUUCACGUCGCGGCCCCUGUCUGAUUCUGGUGAAUCUGCGAAUUCUGCUCU | true (1) |
| GGGGGCCACAGCAGCAGCGUUCACGUCGCUGCCCCUGUCAGAUUCUGGUGAAUCUGCGAAUUCUGCUGU | false (0) |
| GGGGGCCACAGCAGAAGCGUUCACGUCGCGGCCCCUGUCAGAUACUGGUGAAUCUGAGAAUUCUGCUGU | true (1) |
| GGCGGCCACAGCAGAAGCGUUCACGUCGCGGCCCCUGUCAGAUUCUCGUGAAUCUGCGAAUUCUGCUGU | false (0) |
| GGGGGCCACAGCAGAAGCGUUCACGUCGCGGCCCCUGUCAGAUGCUGGUGAAUCUGCGAAUUCUACUGU | true (1) |
